Tested On: Chromobox protein homolog 1 (Homo sapiens) (UniProt P83916)
Sequence (P83916 whole entry, looked up): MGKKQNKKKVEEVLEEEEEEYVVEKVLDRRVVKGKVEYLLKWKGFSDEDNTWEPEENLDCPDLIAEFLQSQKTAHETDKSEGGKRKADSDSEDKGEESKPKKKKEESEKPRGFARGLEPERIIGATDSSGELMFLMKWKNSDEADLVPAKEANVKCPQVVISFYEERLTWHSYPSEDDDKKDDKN
Measurement Notes: HTS for Inhibitors of HP1-beta Chromodomain Interactions with Methylated Histone Tails; also: nearly all actives have a fitted effect of over 70% in size; also: potency is read from the fitted curve at half-maximal effect
Test Conditions: AlphaScreen HP1-beta / biotin-H3K9me3 peptide binding; series mostly up to 114 µM
Hit rate of the full screen: of about 390,000 compounds, about 2,200 (0.56%) were called active. Another 3% or so got no clear call; they are omitted. The entries come from a sample that favours actives as a whole.
Value Type: Potency

Consider the following illustrative entries.
Compound | Result
CCOc1ccc(C2C(C(=O)Nc3ccc(Cl)cc3)=C(C)Nc3nc(C(F)(F)F)nn32)cc1 (stereo not given) | inactive
CC/C=C/C(=O)N1CC2(CC(c3cccc(NC(=O)CC)c3)=NO2)C[C@H]1C(N)=O (stereo not given in full) | inactive
CCc1c(C)sc(NC(=O)C2c3ccccc3Oc3ccccc32)c1C(=O)OC(C)C | inactive
Cc1ccc(-c2nc(S(=O)(=O)c3ccc(C)cc3)c(N3CCCCCC3)o2)cc1 | inactive
COc1ccccc1-c1nnc(C2CCN(C(=O)c3ccc(Cl)cc3)CC2)o1 | inactive
COC(=O)c1cc(NC(=O)CCS(=O)(=O)c2cc(Br)cc3c2N(C(=O)C2CC2)CC3)cc(C(=O)OC)c1 | inactive

For each entry beneath this line, provide reported Potency.
1. CC(C)OC(=O)c1cc(NC(=O)C2C3CCC(O3)C2C(=O)O)cc(C(=O)OC(C)C)c1 (stereo not given)
2. O=C(NCc1ccccn1)[C@]1(C(F)(F)F)C[C@H](CCc2ccccc2)CCCO1
3. C=CS(=O)c1sc(Cl)c(N2CCOCC2)c1[N+](=O)[O-] (stereo not given)

1: inactive; 2: inactive; 3: 44.7 µM (active)

----------
Tested On: Chromobox protein homolog 1 (Homo sapiens) (UniProt P83916)
Measurement Notes: HTS for Inhibitors of HP1-beta Chromodomain Interactions with Methylated Histone Tails; also: nearly all actives have a fitted effect of over 70% in size
Test Conditions: AlphaScreen HP1-beta / biotin-H3K9me3 peptide binding; series mostly up to 114 µM
Out of some 390,000 compounds screened, about 2,200 (0.56%) were called active. About 3% were inconclusive and are not listed. Calls follow the shape of the dose curve; as a rule, active = well fitted inhibition curve with a large enough effect; inconclusive = small, poorly fitted or top-dose-only effect; inactive = no such curve, though single readings can be large or run the other way. This is one part of a sample in which actives are shown more often than they occur.
API: response.call in yes for active, no for inactive

Some solved cases for reference:
Compound | Assigned Category
CCS(=O)(=O)c1cc([N+](=O)[O-])c(Sc2ccccc2N)s1 | yes
O=C(NC(=S)Nc1ncccn1)c1ccccc1Br | no
COc1ccc(/C=C/C(=O)c2cc(Br)ccc(=O)c2O)cc1 | yes

How did this test come out for Cn1nnc(NC(=S)NC(=O)c2ccccc2)n1 ?
yes

How did this test come out for CCOC(=O)C1=C(NC(=S)NC(=O)c2ccccc2)c2ccccc2CC1(C)C ?
no

How did this test come out for Cc1ccc(Nc2nc3ccccc3nc2-n2nc(C)cc2C)c(Cl)c1 ?
no

How did this test come out for CCc1ccc(OCCCn2c(CCCNC(=O)C3CCCCC3)nc3ccccc32)cc1 ?
no

How did this test come out for CCC(C)N1C(=O)S/C(=C/c2ccc(Sc3nc4ccccc4[nH]3)o2)C1=O (configuration not stated) ?
no

How did this test come out for COc1cccc(N2CC(NC(=O)/C=C\c3ccccc3)CC2=O)c1 (configuration not stated) ?
no

----------
Tested On: Chromobox protein homolog 1 (Homo sapiens) (UniProt P83916)
Measurement Notes: HTS for Inhibitors of HP1-beta Chromodomain Interactions with Methylated Histone Tails; also: nearly all actives have a fitted effect of over 70% in size; also: potency is read from the fitted curve at half-maximal effect
Test Conditions: AlphaScreen HP1-beta / biotin-H3K9me3 peptide binding; series mostly up to 114 µM
The whole screen tested about 390,000 compounds, of which about 2,200 (0.56%) were called active. Another 3% or so got no clear call; they are omitted. This excerpt belongs to a sample that is enriched for actives.
Value Type: Potency

Consider the following illustrative entries.
Compound | Potency
CCN(CC)C(=O)CSc1nc2cc3c(cc2c(=O)n1CCCC(=O)NCc1ccc2c(c1)OCO2)OCO3 | inactive
Cc1cc2nn(-c3ccc(Cl)cc3)nc2cc1NC(=O)C(C)C | inactive
COc1ccc(Cn2c(=O)sc3ccccc32)cc1OC | inactive
CCOc1ccc(Nc2nc3c(S(=O)(=O)c4cccc(Cl)c4)nnn3c3ccsc23)cc1 | inactive
O=C1C[C@@H](c2ccc3ccccc3c2)N1S(=O)(=O)c1ccccc1[N+](=O)[O-] | inactive

For each entry beneath this line, provide reported Potency.
1. COc1cc(C(=S)NCc2ccccc2)cc(Br)c1O
2. CCC(Sc1nnc(-c2ccc(OC)cc2)c(-c2ccc(OC)cc2)n1)C(=O)NC1CCCCC1 (configuration not stated)
3. Cn1c(CCCOc2ccc(Cl)cc2Cl)n[nH]c1=S
4. Cc1oc2ccc(O)c(CN3CCCCC3)c2c1C(=O)Nc1cccc(C(F)(F)F)c1
5. Cc1ccc(C)c(Cn2c(CCCNC(=O)C3CCCCC3)nc3ccccc32)c1
6. CCCNc1ncnc2c1c(-c1ccccc1)cn2-c1ccc(OCC)cc1
7. Cc1ccc(-c2ccc(CCC(=O)O)n2-c2ccc(C(N)=O)cc2)cc1

1: 7.94 µM (active); 2: inactive; 3: inactive; 4: inactive; 5: inactive; 6: inactive; 7: inactive

----------
Tested On: Chromobox protein homolog 1 (Homo sapiens) (UniProt P83916)
Measurement Notes: HTS for Inhibitors of HP1-beta Chromodomain Interactions with Methylated Histone Tails; also: nearly all actives have a fitted effect of over 70% in size; also: potency is read from the fitted curve at half-maximal effect
Test Conditions: AlphaScreen HP1-beta / biotin-H3K9me3 peptide binding; series mostly up to 114 µM
About 2,200 (0.56%) of roughly 390,000 compounds were called active. Another 3% or so got no clear call; they are omitted. Only a selection was taken, and actives are over-represented in it overall.
Value Type: Potency

Consider the following illustrative entries.
Compound | Tested On | Result
CCC(=O)N1CCc2cc(S(=O)(=O)NC(CC(C)C)C(=O)NCCc3cccc(C)c3)ccc21 (stereo not given) | Chromobox protein homolog 1 (Homo sapiens) (UniProt P83916) | inactive
COc1cc(N2CCCC2)c(OC)cc1/C=C(/C#N)c1cccc(Br)c1 | Chromobox protein homolog 1 (Homo sapiens) (UniProt P83916) | 35.5 µM (active)
CCOC(=O)N1CCN(C(c2cccnc2)c2ccc3cccnc3c2O)CC1 (stereo not given) | Chromobox protein homolog 1 (Homo sapiens) (UniProt P83916) | 8.91 µM (active)
Nc1ccc2[nH]c(=S)sc2c1 | Chromobox protein homolog 1 (Homo sapiens) (UniProt P83916) | 28.2 µM (active)
COc1ccc(C(=O)CSc2c(C(C)C)cnc3c2c(=O)n(C)c(=O)n3C)cc1 | Chromobox protein homolog 1 (Homo sapiens) (UniProt P83916) | inactive

For each entry beneath this line, provide reported Potency.
1. COc1cccc(-c2nc(S(=O)(=O)c3ccc(C)cc3)c(NCc3ccccc3)o2)c1
2. Cc1ccccc1Nc1c([N+](=O)[O-])ccc2nonc12
3. O=[N+]([O-])c1ccc(N/N=C2/CCCCC2c2ccccn2)c([N+](=O)[O-])c1 (stereo not given)
4. COc1ccc(S(=O)(=O)NNC(=O)Nc2ccc(C)cc2)c(OC)c1
5. O=C1/C(=C/c2ccc3c(c2)OCO3)CCC/C1=C\c1ccc2c(c1)OCO2

1: inactive; 2: inactive; 3: 35.5 µM (active); 4: inactive; 5: 28.2 µM (active)

----------
Tested On: Chromobox protein homolog 1 (Homo sapiens) (UniProt P83916)
Measurement Notes: HTS for Inhibitors of HP1-beta Chromodomain Interactions with Methylated Histone Tails; also: nearly all actives have a fitted effect of over 70% in size
Test Conditions: AlphaScreen HP1-beta / biotin-H3K9me3 peptide binding; series mostly up to 114 µM
Description: As our understanding of epigenetics expands, it is becoming clear that players in this field are potential targets for drug development. […] Low-affinity protein-protein interactions (Kd in the single- to double-digit micromolar range) such as those discussed here have been very difficult to assay by traditional techniques such as fluorescence polarization or fluorescence resonance energy transfer. […]
The whole screen tested about 390,000 compounds, of which about 2,200 (0.56%) were called active. Inconclusive results (about 3%) are left out. Calls come from the whole dose curve; as a rule, active = well fitted inhibition curve with a large enough effect; inconclusive = small, poorly fitted or top-dose-only effect; inactive = no such curve, though single readings can be large or run the other way. The full list was thinned out, with actives kept by preference.
API: response.call in label 1 for active, label 0 for inactive

Some solved cases for reference:
Molecule | Assigned Category
COc1ccc(C(=O)Nc2nonc2-c2ccc(OC)c(OC)c2)cc1Cl | label 0
Cc1ccc(C(=O)O)cc1-c1ccc(/C=C2\SC(=O)N(CC(=O)Nc3ccc4c(c3)OCO4)C2=O)o1 | label 1
Cc1cc(C)c(C=NNc2nc3c([nH]2)c(=O)n(C)c(=O)n3C)c(C)c1 | label 0
CCOC(=O)C1C(=O)C=C(c2ccc(OC)cc2)CC1c1ccco1 (stereo not drawn) | label 0
Cc1ccc(CNC(=O)CSc2c(C)cnc3c2c(=O)n(C)c(=O)n3C)cc1 | label 0
O=C(Cn1ncn2nc(-c3cccs3)cc2c1=O)NCc1cccc(Br)c1 | label 0
CCCCNC(=O)Cn1c(SCc2cccc(Cl)c2)nc2ccncc21 | label 0

Next item in the queue.
How did this test come out for Cc1ccc(NN=Nc2nc3c([nH]2)c(=O)n(C)c(=O)n3C)cc1 ?
label 1
